Reported Relative Enhancement (relative to wild type) is given for each of the following binders.
Molecular target: T1, denatured glycoprotein RNase B (UniProt P61823 27-150, a single N-glycosylation site predominantly occupied by high mannose oligosaccharides; protein denatured)
T1 construct: Recognition by the PNGase F mutants and by Con A goes through the N-linked glycan on the protein; also called denatured RNase B; dRNAse B
T1 sequence (looked up): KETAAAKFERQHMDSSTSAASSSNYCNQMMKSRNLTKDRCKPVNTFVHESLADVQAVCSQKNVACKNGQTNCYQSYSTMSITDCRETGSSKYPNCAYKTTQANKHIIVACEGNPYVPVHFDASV
Assay: SPR Kd against wild type Km
READOUT_LABEL: Relative Enhancement (relative to wild type) (fold)

[[record]]
binder = "PNGase F D60A/D57A mutant (enzyme) APADNTVNIKTFDKVKNAFGDGLSQSAEGTFTFPADVTTVKTIKMFIKNECPNKTCAEWARYANVYVKNKTTGEWYEIGRFITPYWVGTEKLPRGLEIDVTDFKSLLSGNTELKIYTETWLAKGREYSVDFDIVYGTPDYKYSAVVPVIQYNKSSIDGVPYGKAHTLGLKKNIQLPTNTEKAYLRTTISGWGHAKPYDAGSRGCAEWCFRTHTIAINNANTFQHQLGALGCSANPINNQSPGNWAPDRAGWCPGMAVPTRIDVLNNSLTGSTFSYEYKFQSWTNNGTNGDAFYAISSFVIAKSNTPISAPVVTN"
experimental_value = 910

[[record]]
binder = "PNGase F D60A mutant (enzyme) APADNTVNIKTFDKVKNAFGDGLSQSAEGTFTFPADVTTVKTIKMFIKNECPNKTCDEWARYANVYVKNKTTGEWYEIGRFITPYWVGTEKLPRGLEIDVTDFKSLLSGNTELKIYTETWLAKGREYSVDFDIVYGTPDYKYSAVVPVIQYNKSSIDGVPYGKAHTLGLKKNIQLPTNTEKAYLRTTISGWGHAKPYDAGSRGCAEWCFRTHTIAINNANTFQHQLGALGCSANPINNQSPGNWAPDRAGWCPGMAVPTRIDVLNNSLTGSTFSYEYKFQSWTNNGTNGDAFYAISSFVIAKSNTPISAPVVTN"
experimental_value = 580

[[record]]
binder = "PNGase F D60A/R125A mutant (enzyme) APADNTVNIKTFDKVKNAFGDGLSQSAEGTFTFPADVTTVKTIKMFIKNECPNKTCDEWARYANVYVKNKTTGEWYEIGRFITPYWVGTEKLPRGLEIDVTDFKSLLSGNTELKIYTETWLAKGAEYSVDFDIVYGTPDYKYSAVVPVIQYNKSSIDGVPYGKAHTLGLKKNIQLPTNTEKAYLRTTISGWGHAKPYDAGSRGCAEWCFRTHTIAINNANTFQHQLGALGCSANPINNQSPGNWAPDRAGWCPGMAVPTRIDVLNNSLTGSTFSYEYKFQSWTNNGTNGDAFYAISSFVIAKSNTPISAPVVTN"
experimental_value = 360

[[record]]
binder = "PNGase F D60A/E206K mutant (enzyme) APADNTVNIKTFDKVKNAFGDGLSQSAEGTFTFPADVTTVKTIKMFIKNECPNKTCDEWARYANVYVKNKTTGEWYEIGRFITPYWVGTEKLPRGLEIDVTDFKSLLSGNTELKIYTETWLAKGREYSVDFDIVYGTPDYKYSAVVPVIQYNKSSIDGVPYGKAHTLGLKKNIQLPTNTEKAYLRTTISGWGHAKPYDAGSRGCAKWCFRTHTIAINNANTFQHQLGALGCSANPINNQSPGNWAPDRAGWCPGMAVPTRIDVLNNSLTGSTFSYEYKFQSWTNNGTNGDAFYAISSFVIAKSNTPISAPVVTN"
experimental_value = 360

[[record]]
binder = "PNGase F E206A mutant (enzyme) APADNTVNIKTFDKVKNAFGDGLSQSAEGTFTFPADVTTVKTIKMFIKNECPNKTCDEWDRYANVYVKNKTTGEWYEIGRFITPYWVGTEKLPRGLEIDVTDFKSLLSGNTELKIYTETWLAKGREYSVDFDIVYGTPDYKYSAVVPVIQYNKSSIDGVPYGKAHTLGLKKNIQLPTNTEKAYLRTTISGWGHAKPYDAGSRGCAAWCFRTHTIAINNANTFQHQLGALGCSANPINNQSPGNWAPDRAGWCPGMAVPTRIDVLNNSLTGSTFSYEYKFQSWTNNGTNGDAFYAISSFVIAKSNTPISAPVVTN"
experimental_value = 580

[[record]]
binder = "PNGase F D60A/E206Q mutant (enzyme) APADNTVNIKTFDKVKNAFGDGLSQSAEGTFTFPADVTTVKTIKMFIKNECPNKTCDEWARYANVYVKNKTTGEWYEIGRFITPYWVGTEKLPRGLEIDVTDFKSLLSGNTELKIYTETWLAKGREYSVDFDIVYGTPDYKYSAVVPVIQYNKSSIDGVPYGKAHTLGLKKNIQLPTNTEKAYLRTTISGWGHAKPYDAGSRGCAQWCFRTHTIAINNANTFQHQLGALGCSANPINNQSPGNWAPDRAGWCPGMAVPTRIDVLNNSLTGSTFSYEYKFQSWTNNGTNGDAFYAISSFVIAKSNTPISAPVVTN"
experimental_value = 360

[[record]]
binder = "PNGase F D60A/E206A mutant (enzyme) APADNTVNIKTFDKVKNAFGDGLSQSAEGTFTFPADVTTVKTIKMFIKNECPNKTCDEWARYANVYVKNKTTGEWYEIGRFITPYWVGTEKLPRGLEIDVTDFKSLLSGNTELKIYTETWLAKGREYSVDFDIVYGTPDYKYSAVVPVIQYNKSSIDGVPYGKAHTLGLKKNIQLPTNTEKAYLRTTISGWGHAKPYDAGSRGCAAWCFRTHTIAINNANTFQHQLGALGCSANPINNQSPGNWAPDRAGWCPGMAVPTRIDVLNNSLTGSTFSYEYKFQSWTNNGTNGDAFYAISSFVIAKSNTPISAPVVTN"
experimental_value = 320

